Molecular target: IgG receptor FcRn large subunit p51 (Homo sapiens)
Sequence (P55899 whole entry): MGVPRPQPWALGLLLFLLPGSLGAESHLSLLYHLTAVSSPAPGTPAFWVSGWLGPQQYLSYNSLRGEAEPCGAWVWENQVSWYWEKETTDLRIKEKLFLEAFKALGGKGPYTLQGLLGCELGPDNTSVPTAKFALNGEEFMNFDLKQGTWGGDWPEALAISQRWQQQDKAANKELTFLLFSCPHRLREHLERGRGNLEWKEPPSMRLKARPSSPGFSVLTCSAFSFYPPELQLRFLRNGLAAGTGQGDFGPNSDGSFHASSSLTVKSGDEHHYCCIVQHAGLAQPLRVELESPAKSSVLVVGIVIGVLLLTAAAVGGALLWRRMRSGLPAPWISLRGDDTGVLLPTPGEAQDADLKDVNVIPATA
Assay: Inhibition of human IgG binding to soluble human FcRn by ELISA
readout_kind: IC50

Solved entries:
- compound: "CC(C)C[C@H](NC(=O)CNC(=O)CNC(=O)[C@H](Cc1ccccc1)NC(=O)[C@H](Cc1cnc[nH]1)NC(=O)CNC(=O)[C@@H](NC(=O)[C@H](CS)NC(=O)[C@H](Cc1ccccc1)NC(=O)[C@H](CCCNC(=N)N)NC(=O)[C@@H](N)CCC(N)=O)[C@@H](C)O)C(=O)N[C@@H](Cc1ccccc1)C(=O)N1CCC[C@H]1C(=O)N[C@@H](CS)C(=O)N[C@@H](CC(N)=O)C(=O)NCC(=O)N1CCC[C@H]1C(=O)O"
  IC50: "> 125 µM"
- compound: "CC(C)C[C@H](NC(=O)CNC(=O)[C@H]1CCCN1C(=O)[C@H](Cc1ccccc1)NC(=O)[C@H](Cc1cnc[nH]1)NC(=O)CNC(=O)[C@@H](NC(=O)[C@@H](NC(=O)[C@H](Cc1ccccc1)NC(=O)[C@H](CCCN=C(N)N)NC(=O)[C@@H](N)CCC(N)=O)C(C)(C)S)[C@@H](C)O)C(=O)N[C@@H](Cc1ccc(O)cc1)C(=O)N1CCC[C@H]1C(=O)N[C@@H](CS)C(=O)N[C@@H](CC(N)=O)C(=O)NCC(=O)N1CCC[C@H]1C(=O)O"
  IC50: "5 µM"

Continue with the next molecule.
Recorded IC50 (molecule `CC(C)C[C@@H](C(=O)N[C@@H](Cc1ccc(O)cc1)C(=O)N1CCC[C@H]1C(=O)N[C@@H](CS)C(=O)O)N(C)C(=O)CN1CCC[C@@H](NC(=O)[C@H](Cc2ccccc2)NC(=O)[C@H](Cc2cnc[nH]2)NC(=O)CNC(=O)[C@@H](NC(=O)[C@H](NC(=O)[C@H](Cc2ccccc2)NC(=O)[C@@H](N)CCCNC(=N)N)C(C)(C)S)[C@@H](C)O)C1=O` ): 0.53 µM
